Assay: recombinant UMI read abundance after kanamycin selection (control-corrected) (log10(CPM+1)); higher = more efficient recombination; extreme values may be limits of the assay; sequences stand for … in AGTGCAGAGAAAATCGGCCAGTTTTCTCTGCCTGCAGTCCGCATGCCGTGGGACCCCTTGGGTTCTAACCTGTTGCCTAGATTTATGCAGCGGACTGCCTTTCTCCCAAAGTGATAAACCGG…AGGTTGGTTTCACT; site = the 11-nt donor
MEASURE NAME: recombinant UMI read abundance (log10)
Answer with a number only.

Take a look at these entries with their results.
CONSTRUCT SEQUENCE	MEASURE NAME	RECORDED MEASUREMENT
CCAGTCACATGGACCGGTTTTCCCGGTAATCCGTATTTGGG (site CTAGTCACTCC)	recombinant UMI read abundance (log10)	0.0251
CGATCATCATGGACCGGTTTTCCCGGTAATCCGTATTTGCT (site CCATCATCTTG)	recombinant UMI read abundance (log10)	0
CGTTTGACATGGACCGGTTTTCCCGGTAATCCGTATTTGCT (site CGTTTGCCTAG)	recombinant UMI read abundance (log10)	0
CATTATCCATGGACCGGTTTTCCCGGTAATCCGTATTTGCT (site AATTATCCTAG)	recombinant UMI read abundance (log10)	0.352
TGGGAAACATGGACCGGTTTTCCCGGTAATCCGTATTTGGT (site TGGGAAACTAC)	recombinant UMI read abundance (log10)	1.29

Value of measured recombinant UMI read abundance (log10) for the entry AGGAAGACATGGACCGGTTTTCCCGGTAATCCGTATTTGGA (site AGGAAGACTTG) : 1.04

Value of measured recombinant UMI read abundance (log10) for the entry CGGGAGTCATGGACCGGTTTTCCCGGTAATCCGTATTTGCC (site CGGGAGCCTGG) : 0

Value of measured recombinant UMI read abundance (log10) for the entry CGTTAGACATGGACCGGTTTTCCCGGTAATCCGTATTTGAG (site CATTAGACTCT) : 0.498

Value of measured recombinant UMI read abundance (log10) for the entry CTAGTAACATGGACCGGTTTTCCCGGTAATCCGTATTTGGA (site CTAATAACTTC) : 1.33

----------
// values below are reported recombinant barcode read abundance (log10)
Experiment: recombinant barcode read abundance after kanamycin selection (control-corrected) (log10(CPM+1)); higher = more efficient recombination; sequences stand for … in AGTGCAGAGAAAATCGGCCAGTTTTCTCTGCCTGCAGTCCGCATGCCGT…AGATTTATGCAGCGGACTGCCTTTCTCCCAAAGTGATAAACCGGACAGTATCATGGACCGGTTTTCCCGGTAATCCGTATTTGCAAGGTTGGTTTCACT; site = the 11-nt target

Take a look at these entries with their results.
CONSTRUCT SEQUENCE	RECORDED MEASUREMENT
GTCAACCCTTGGGTTCTAACCTGTTGCGG (site GTCAACCCTCC)	2.33
CGTCGACCTTGGGTTCTAACCTGTTGCCT (site CGTCGACCTAG)	0.0617
GTTTCGGCTTGGGTTCTAACCTGTTGCCT (site GTTGCGGCTAG)	0.101
AGTTCATCTTGGGTTCTAACCTGTTGCAT (site AGTTCATCTAT)	0.0989
GACACGCCTTGGGTTCTAACCTGTTGCGT (site GACACGCCTAC)	0.571

Value of measured recombinant barcode read abundance (log10) for the entry CACGAGTCTTGGGTTCTAACCTGTTGCCT (site CACGAGCCTAG) : 0.24

Value of measured recombinant barcode read abundance (log10) for the entry CGGCAGTCTTGGGTTCTAACCTGTTGCGT (site CGACAGTCTAC) : 2.34

Value of measured recombinant barcode read abundance (log10) for the entry GTGTTTCCTTGGGTTCTAACCTGTTGCAT (site GTGTTTCCTAT) : 0.832

Value of measured recombinant barcode read abundance (log10) for the entry TTGGCCACTTGGGTTCTAACCTGTTGCCT (site TTGGTCACTAG) : 0.0232

Value of measured recombinant barcode read abundance (log10) for the entry CCACAGTCTTGGGTTCTAACCTGTTGCCT (site CCACAGTCTAG) : 1.44

Value of measured recombinant barcode read abundance (log10) for the entry TCAGATTCTTGGGTTCTAACCTGTTGCCT (site TCATATTCTAG) : 0.114

Value of measured recombinant barcode read abundance (log10) for the entry TTCGAGTCTTGGGTTCTAACCTGTTGCGG (site TGCGAGTCTAC) : 0.0798

Value of measured recombinant barcode read abundance (log10) for the entry TAGTACTCTTGGGTTCTAACCTGTTGCTT (site TAGTACTCTCA) : 0.0325

----------
Experiment: recombinant UMI read abundance after kanamycin selection (control-corrected) (log10(CPM+1)); higher = more efficient recombination; extreme values may be limits of the assay; sequences stand for … in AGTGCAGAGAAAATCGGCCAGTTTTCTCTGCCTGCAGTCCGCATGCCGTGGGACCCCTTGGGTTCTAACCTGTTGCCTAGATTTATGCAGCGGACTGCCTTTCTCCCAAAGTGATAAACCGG…AGGTTGGTTTCACT; site = the 11-nt donor
Param threshold (0.04) applies to recombinant UMI read abundance (log10); output fulfilled when value >= threshold, not fulfilled when value < threshold.

Examples from the recorded data:
CONSTRUCT SEQUENCE	CATEGORY LABEL
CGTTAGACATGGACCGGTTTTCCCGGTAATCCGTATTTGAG (site CGTTGGACTCT)	not fulfilled
GCCCACCCATGGACCGGTTTTCCCGGTAATCCGTATTTGTT (site GTCCACCCTAA)	not fulfilled
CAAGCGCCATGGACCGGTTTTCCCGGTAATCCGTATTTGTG (site CAAGCGCCTTA)	fulfilled
GCCACGCCATGGACCGGTTTTCCCGGTAATCCGTATTTGAA (site GCCACGCCTTG)	not fulfilled
GTAGTCGCATGGACCGGTTTTCCCGGTAATCCGTATTTGAG (site GTAGTCGCTCC)	fulfilled

// query Determine whether measured recombinant UMI read abundance (log10) meets or exceeds 0.04 for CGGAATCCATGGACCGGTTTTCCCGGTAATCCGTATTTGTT (site CGGATACCTAA)
// result not fulfilled

// query Determine whether measured recombinant UMI read abundance (log10) meets or exceeds 0.04 for CCCCAGACATGGACCGGTTTTCCCGGTAATCCGTATTTGTA (site CCCCAGACTTA)
// result fulfilled

// query Determine whether measured recombinant UMI read abundance (log10) meets or exceeds 0.04 for CCGTTTACATGGACCGGTTTTCCCGGTAATCCGTATTTGCG (site CCGTTTACTCG)
// result fulfilled

// query Determine whether measured recombinant UMI read abundance (log10) meets or exceeds 0.04 for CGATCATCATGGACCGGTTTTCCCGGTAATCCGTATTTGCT (site CTATAATCTAG)
// result fulfilled

// query Determine whether measured recombinant UMI read abundance (log10) meets or exceeds 0.04 for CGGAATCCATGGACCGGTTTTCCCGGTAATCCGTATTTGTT (site CGAAAACCTAA)
// result not fulfilled

// query Determine whether measured recombinant UMI read abundance (log10) meets or exceeds 0.04 for GCATGGCCATGGACCGGTTTTCCCGGTAATCCGTATTTGCA (site GTATGGCCTTG)
// result not fulfilled

// query Determine whether measured recombinant UMI read abundance (log10) meets or exceeds 0.04 for CGTGAGACATGGACCGGTTTTCCCGGTAATCCGTATTTGAG (site CGTTAGACTCT)
// result fulfilled

// query Determine whether measured recombinant UMI read abundance (log10) meets or exceeds 0.04 for AATGTAACATGGACCGGTTTTCCCGGTAATCCGTATTTGTT (site AATGTAACTAC)
// result not fulfilled

// query Determine whether measured recombinant UMI read abundance (log10) meets or exceeds 0.04 for GACCCGCCATGGACCGGTTTTCCCGGTAATCCGTATTTGAG (site GACCCGCCTCT)
// result not fulfilled

----------
Assay: recombinant UMI read abundance after kanamycin selection (control-corrected) (log10(CPM+1)); higher = more efficient recombination; extreme values may be limits of the assay; sequences stand for … in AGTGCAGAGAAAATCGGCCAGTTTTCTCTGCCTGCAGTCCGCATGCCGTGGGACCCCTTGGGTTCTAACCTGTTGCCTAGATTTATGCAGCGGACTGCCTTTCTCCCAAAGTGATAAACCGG…AGGTTGGTTTCACT; site = the 11-nt donor
MEASURE NAME: recombinant UMI read abundance (log10)
Answer with a number only.

CONSTRUCT SEQUENCE	recombinant UMI read abundance (log10)
AGTCAGACATGGACCGGTTTTCCCGGTAATCCGTATTTGGC (site AGTCAGACTGC)	2.34
CTCGTATCATGGACCGGTTTTCCCGGTAATCCGTATTTGAC (site CTAGTATCTGT)	0.00452
TGGTCTGCATGGACCGGTTTTCCCGGTAATCCGTATTTGCG (site ACCGTCTCTGA)	0
GATCGCTCATGGACCGGTTTTCCCGGTAATCCGTATTTGTT (site GATCGCTCTAA)	0.523
AGCTTCGCATGGACCGGTTTTCCCGGTAATCCGTATTTGAC (site AGCTTCGCTGT)	1.58
TAGATTACATGGACCGGTTTTCCCGGTAATCCGTATTTGCA (site TAGACTACTTG)	0.98
CGATCATCATGGACCGGTTTTCCCGGTAATCCGTATTTGTT (site CGATCATCTAC)	0
ATGCTACCATGGACCGGTTTTCCCGGTAATCCGTATTTGCT (site ATGCTACCTAG)	0

# ---- query sequence ----
Value of measured recombinant UMI read abundance (log10) for the entry GTAGGCACATGGACCGGTTTTCCCGGTAATCCGTATTTGTA (site GTACGCACTTA) : 0.279

Provenance of the data: the supplement of paper PMC11208160
